Target: Human M4 (Homo sapiens, UniProt P08173)
Construct: expressed in transfected cells
Sequence (P08173 whole entry): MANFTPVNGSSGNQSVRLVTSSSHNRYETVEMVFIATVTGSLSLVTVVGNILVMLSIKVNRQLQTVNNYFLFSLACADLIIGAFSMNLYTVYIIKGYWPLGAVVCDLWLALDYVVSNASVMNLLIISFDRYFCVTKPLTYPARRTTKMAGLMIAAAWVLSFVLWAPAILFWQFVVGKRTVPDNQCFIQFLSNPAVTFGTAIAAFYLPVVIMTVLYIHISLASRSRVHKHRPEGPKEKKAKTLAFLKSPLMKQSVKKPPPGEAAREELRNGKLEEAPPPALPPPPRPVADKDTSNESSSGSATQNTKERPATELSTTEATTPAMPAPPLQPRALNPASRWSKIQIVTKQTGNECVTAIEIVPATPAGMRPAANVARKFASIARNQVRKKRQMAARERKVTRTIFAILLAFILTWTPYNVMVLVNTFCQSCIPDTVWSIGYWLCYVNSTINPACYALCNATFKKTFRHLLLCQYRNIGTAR
Assay: mAChR M4 cell-based functional assay (calcium flux, PAM mode)
Settings: CHO-K1, % ACh maximum at 30 μM; hM4-Gqi5 CHO-K1 cells
Recorded Emax at 30 µM, one value per entry.

smiles record	Emax at 30 µM
[2H]C1([2H])Oc2ccc(OC3CCN(c4nn5c(=O)c(C6CC6)cnc5cc4C)CC3)cc2OC1([2H])[2H]	80%
Cc1cc2nccc(=O)n2nc1N1CC[C@@H](Oc2ccc3c(c2)CCO3)[C@H](F)C1	80%
Cc1cc2nccc(=O)n2nc1N1CC[C@H](Oc2ccc3c(c2)OCCO3)[C@H](F)C1	69%
[2H]C1(Oc2ccc3c(c2)OC([2H])([2H])C([2H])([2H])O3)CCN(c2nn3c(=O)cc(C(F)F)nc3cc2C)CC1	108%
[2H]C1([2H])Oc2ccc(OC3CCN(c4nn5c(=O)cc(C(F)F)nc5cc4C)CC3)cc2OC1([2H])[2H]	76%
Cc1cc2nccc(=O)n2nc1N1CC[C@@H](Oc2ccc3c(c2)OCCC3)[C@H](F)C1	83%
[2H]C1(Oc2ccc3c(c2)OCCO3)CCN(c2nn3c(=O)cc(C)nc3cc2C)CC1	99%

Reference source: patent US11884676B2
